test system: OVCAR-8 ovarian; test: NCI-60 one-dose screen, 48 h (100 = growth as untreated, 0 = no growth, -100 = all killed); conditions: 10 µM unless noted
The panel holds about 83,000 compounds, 20% with a hit somewhere; the sample as a whole holds those more often.
Respond with MET for growth values of 60% and above, NOT MET for values below.

# example entries with known answers
1. N#Cc1cccc(CN2CCC3=C(C2)C(=O)N(Cc2ccc(Cl)cc2)C2=NCCCN23)c1 = NOT MET
2. N#Cc1c(-c2cccs2)cc(-c2cnccn2)nc1SCC(=O)c1ccc(F)cc1 = MET
3. O=C(Nc1ccc(N=Cc2c(O)[nH]c3ccccc23)cc1)Nc1nccs1 = NOT MET
4. Cc1ccc(CSc2nc(-c3ccc(Cl)cc3)c(C#N)c(N3CCNCC3)n2)cc1 = MET
5. O=S(=O)(NCCCNc1nccc(-c2[nH]c(-c3ccccc3)nc2-c2ccc(Cl)c(O)c2)n1)c1cccc(F)c1 = NOT MET
6. N#Cc1c(NC(=O)c2cccc(C(F)(F)F)c2F)sc2c1CCC(=O)C2 = NOT MET
7. Cn1cc(-c2nc(N)nnc2-c2c[nH]c3ccc(Br)cc23)c2cc(Br)ccc21 = NOT MET
8. Cn1cc(-c2nnc(N)nc2-c2c[nH]c3ccc(F)cc23)c2cc(F)ccc21 = MET
9. CNC(=O)c1cc(Oc2ccc3nc(NC(=O)c4ccc(N5CCOCC5)c(C(F)(F)F)c4)sc3c2)ccn1 = NOT MET
10. Cc1ccc(NC(=S)NNC(=S)Nc2ccc(C)cc2)cc1 = MET

Task: growth >= 60% for O=C(Nc1ccc2c(ccn2Cc2ccccn2)c1)c1ccnnc1 ?
Output: MET

Task: Hi team, for NC(N)=Nc1ccc(Oc2ccc(Nc3ccc(Cl)c(C(F)(F)F)c3)cc2)cc1 , is the recorded growth at or above 60%?
Output: NOT MET

Task: Confirm if growth reported for the molecule COc1c(N2CC3CCCNC3C2)c(F)cc2c(=O)c(C(=O)N/N=C/c3ccc(N(C)C)cc3)cn(C3CC3)c12 (stereo not drawn) is 60% or above.
Output: MET

----------
tested on: HS 578T breast; assay: NCI-60 one-dose screen, 48 h (100 = growth as untreated, 0 = no growth, -100 = all killed); details: 10 µM unless noted
The panel holds about 83,000 compounds, 20% with a hit somewhere; the sample as a whole holds those more often.
Reported growth by item:
Please respond with the number in % and leave the unit unwritten.

1) CC1(C)CC[C@]2(C(=O)N3CCOCC3)CC[C@]3(C)C(=CC[C@@H]4[C@@]5(C)C/C(=C/c6ccco6)C(=O)C(C)(C)[C@@H]5CC[C@]43C)[C@@H]2C1 = 83.5
2) NC(N)=Nc1ccc(Oc2cccc(NC(N)=Nc3ccc(I)cc3F)c2)cn1 = 53.3
3) Cn1ccnc1C(=O)/C=C/c1ccc(CNC(=O)c2ccc(F)cc2)cc1 = 40.4
4) CCOC(=O)C(=O)CC(=O)N1C(=S)NC(=O)C1CC(C)C (stereo not given) = 111

Task: State the recorded growth for this entry: Cc1ccc(S(=O)(=O)NCCNc2nc(Nc3ccc(N4CCN(C)CC4)cc3)nc3ccsc23)cc1
Output: 89

Task: So what does the record say about growth for N/C(=N\C(N)=N\c1nc2ccccc2s1)c1ccc2ccccc2c1 ?
Output: 90.9

Task: // lookup growth for CCCCCc1ccc(S(=O)(=O)Nc2cccc(-c3csc(NCCN4CCN(C)CC4)n3)c2)cc1
Output: 87

Task: Which value of growth has been reported for CCCCc1nc(/C=N/Nc2nc(Nc3ccccc3)nc(Nc3ccc(S(N)(=O)=O)cc3)n2)c(Cl)[nH]1 in the records?
Output: 77.8

Task: Could you share which growth value was measured for C#CCNC1CCC(c2csc(C#C)n2)=C1C (stereo not given) ?
Output: 90.7

Task: # get_value(readout='growth', item= CCNC(=O)N1CCc2cc(OC)c(OCCc3ccc(OC)nc3)cc2C1c1ccc(C)cc1C (stereo not given) )
Output: -2.81

Task: What measured growth goes with O=C(CN1CCN(c2cc(=O)n(-c3ccccc3)c3ccccc23)CC1)Nc1ccc(F)cc1 ?
Output: 88.7

Task: // returns reported growth for input NS(=O)(=O)c1ccc(Nc2nc(N/N=C/CCc3ccccc3)nc(Nc3ccccc3)n2)cc1
Output: 96.8

Task: What value of growth has been reported for the following compound? O=S(=O)(NCCNc1nccc(-n2cnc3ccccc32)n1)c1ccc(Cl)cc1
Output: 88.1

Task: If you can, please state the reported growth value of C#CCOc1ccc(/C=N\Nc2nc(-c3ccc(C)cc3)cs2)cc1OC .
Output: 111

Task: Returns the measured growth for the input compound. Input: CCOC(=O)c1c(N)c(C#N)cn1-c1cc(OC)c(OC)c(OC)c1
Output: 99.5

----------
test system: BT-549 breast; assay: NCI-60 one-dose screen, 48 h (100 = growth as untreated, 0 = no growth, -100 = all killed); conditions: 10 µM unless noted
The panel holds about 83,000 compounds, 20% with a hit somewhere; the sample as a whole holds those more often.
Binary classification by growth, with 80% as an inclusive lower bound for rule met; all other cases are rule not met.

1) CCO/C=N/C1=C(C#N)C(c2ccc(Cl)cc2)c2sc3c(C)cccc3c2O1 (configuration not stated) = rule not met
2) Nc1ncc(-c2ccc(NS(=O)(=O)c3ccc(Cl)c(Cl)c3)cc2)[nH]1 = rule not met
3) COc1cc(-c2nc3sccn3c2-c2ccnc(S(C)(=O)=O)n2)ccc1F = rule met
4) COc1cc(-c2nc(SCCC(C)C)nc(NNC(=O)c3ccncc3)c2C#N)cc(OC)c1OC = rule met
5) COc1cc(OC)cc(C(=O)Nc2cccc(C#Cc3cccc4[nH]nc(N)c34)c2)c1 = rule not met
6) CCN(CC)c1ccc(NC2=C(Cl)C(=O)c3nc(C)ccc3C2=O)cc1 = rule met

Task: Tell me whether growth is at least 80% here: COC(=O)c1ccc(NC2=C/C(=N/S(=O)(=O)c3ccc(C(=O)O)cc3)c3ccccc3C2=O)cc1
Output: rule met

----------
Listing of recorded growth by entry.
tested on: MDA-MB-435 melanoma; assay: NCI-60 one-dose screen, 48 h (100 = growth as untreated, 0 = no growth, -100 = all killed); settings: 10 µM unless noted
About 83,000 compounds went through this panel and 20% of them were active in at least one assay; those are over-represented in the sample as a whole.
Write down the numeric answer in % and omit the unit.

The cases that follow already have their growth on record.
1) C#CCOC(=O)[C@@H]1CCCN1CC#C = 90.9
2) COc1ccc(Oc2ccc(/C=N/NC(=O)CSc3nc4ccccc4c(=O)n3-c3ccc(Cl)cc3)cc2)cc1 = 87.7

Alright, here's another molecule for you.
Task: Given the entry COc1cc2oc(-c3cccc(NC(=O)c4cc(N)ccc4Cl)c3)cc(=O)c2c(OC)c1OC , report its measured growth.
Output: 89.5

----------
system: RXF 393 renal; assay: NCI-60 one-dose screen, 48 h; conditions: 10 µM unless noted
The panel holds about 83,000 compounds, 20% with a hit somewhere; the sample as a whole holds those more often. Calls of active or inactive are those of the source. How the source made its calls: active means growth percent below 10; inactive means the rest.
Respond with a class label; see active, inactive

1) COc1ccc(CCN2C(=O)CSC2=S)cc1 = inactive

Task: Recorded call for CC(=O)N(C)C1CCc2c(sc(NC(=O)c3ccc(C(C)(C)C)cc3)c2C(N)=O)C1 (stereo unspecified) ?
Output: inactive

Task: Which outcome was entered for the molecule O=C(CSc1nnc(-c2ccc3nc(-c4ccccc4)[nH]c3c2)o1)Nc1ccc(C(=O)/C=C/c2ccccc2)cc1 in this test?
Output: inactive

Task: Assay outcome for O=C(Nc1ccc2c(ccn2Cc2ccccn2)c1)c1cnccn1 : what was it?
Output: inactive

Task: What did this assay record as the result for O=C1CCCC2=C1C(c1c[nH]c3ccc(Br)cc13)Cc1cc(Br)ccc1N2 (stereo unspecified) ?
Output: inactive

Task: I'd appreciate the recorded outcome for CCCn1cnc2c(c1=N)C(c1ccc(Cl)cc1)c1sc3c(C)cccc3c1O2 (stereo unspecified) from this test.
Output: active

Task: Recorded test outcome, item C#CCC#CCN1CCC[C@H]1C(=O)NCC(=O)OC
Output: inactive

Task: Could you check what this test reported for O=C(CSc1nc2ccccc2c(=O)n1-c1ccccc1)Nc1ccc(-c2nc3ccc([N+](=O)[O-])cc3[nH]2)cc1 ?
Output: inactive

----------
tested on: IGROV1 ovarian; assay: NCI-60 one-dose screen, 48 h (100 = growth as untreated, 0 = no growth, -100 = all killed); details: 10 µM unless noted
Compounds without any hit were thinned out: in the full panel of roughly 83,000, 20% have a hit.
Threshold 70%: growth strictly smaller gives t, otherwise f.

Take a look at these entries with their results.
1. COc1ccc2c(c1)c(CC(=O)[Se]CC(=O)O)c(C)n2C(=O)c1ccc(Cl)cc1 = f
2. COc1ccc([C@@H]2c3[nH]c4ccccc4c3C[C@H]3C(=O)N(C4CCN(CC5CCCCC5)CC4)CC(=O)N23)c(OC)c1 = t
3. Cc1ccc(CSc2nc(-c3ccc(Cl)cc3)c(C#N)c(N3CCNCC3)n2)cc1 = t
4. Cc1cc(C)c2sc(=O)n(Cc3nnc(SCCC(=O)O)o3)c2n1 = f
5. O=C(NCCn1ccnc1)c1ccc(-c2nc3ccc4[nH]ncc4c3c3c2CCCC3)cc1 = t

Kindly consider the entry below.
Task: growth strictly < 70% for this compound? C=C(C=O)[C@@H]1CC[C@]2(C)[C@H](CC=C3[C@H]4[C@@H](C)[C@H](C)CC[C@]4(C(=O)OC)CC[C@]32C)[C@@]1(C)CCC#N
Output: t
